Values were extracted from patent US20240166765A1.

Catalogue of Kd readings, one per entry.
TESTED_SYSTEM: T1, cynomolgus TF ECD-His6 (cynomolgus monkey (Macaca fascicularis))
T1 construct: made in Expi293 cells; also called TF-His; cTF
T1 chain: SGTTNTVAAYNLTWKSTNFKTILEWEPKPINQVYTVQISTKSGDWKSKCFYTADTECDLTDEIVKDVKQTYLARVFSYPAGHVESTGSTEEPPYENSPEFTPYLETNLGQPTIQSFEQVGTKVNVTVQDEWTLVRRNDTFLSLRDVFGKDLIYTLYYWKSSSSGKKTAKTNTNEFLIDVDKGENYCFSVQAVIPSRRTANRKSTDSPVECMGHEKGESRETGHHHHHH
ASSAY_PROTOCOL: BLI (ForteBio Octet)
Give the value, in units of nM, as a plain number.

Here's what some known entries look like.
BINDER | MEASUREMENT_LABEL | MEAS_VALUE
25A3 (antibody, human IgG1, kappa, V domains shown, human IgG1) VH: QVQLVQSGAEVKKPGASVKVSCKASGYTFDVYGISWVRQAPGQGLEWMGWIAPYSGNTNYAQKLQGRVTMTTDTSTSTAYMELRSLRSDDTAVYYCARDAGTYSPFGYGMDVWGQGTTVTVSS VL: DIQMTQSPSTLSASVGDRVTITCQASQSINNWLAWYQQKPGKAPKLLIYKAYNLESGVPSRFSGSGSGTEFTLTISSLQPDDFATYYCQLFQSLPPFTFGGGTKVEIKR | Kd | 1.36
25G1 (antibody, human IgG1, kappa, V domains shown, human IgG1) VH: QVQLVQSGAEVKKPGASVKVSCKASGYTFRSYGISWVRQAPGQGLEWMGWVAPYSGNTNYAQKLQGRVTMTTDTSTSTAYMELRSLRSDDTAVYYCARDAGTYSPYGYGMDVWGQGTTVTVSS VL: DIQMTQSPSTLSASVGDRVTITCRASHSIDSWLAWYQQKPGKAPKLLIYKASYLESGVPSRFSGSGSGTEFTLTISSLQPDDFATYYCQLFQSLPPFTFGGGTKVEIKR | Kd | 4.99

Please look at the following binder next.
Endpoint output: Kd of 25A (antibody, human IgG1, V domains shown, human IgG1) VH: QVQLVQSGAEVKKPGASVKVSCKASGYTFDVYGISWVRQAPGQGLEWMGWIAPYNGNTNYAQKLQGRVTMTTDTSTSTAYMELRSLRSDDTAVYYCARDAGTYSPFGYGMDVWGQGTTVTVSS VL: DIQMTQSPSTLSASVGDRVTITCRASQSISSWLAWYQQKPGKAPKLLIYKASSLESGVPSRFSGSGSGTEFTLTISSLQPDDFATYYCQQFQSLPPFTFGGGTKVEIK . Value? 7.65
